tested_system: FLT3 D835Y (Homo sapiens, UniProt P36888, D835Y)
Construct: Recombinant proteins containing the FLT3 and FLT3 (D835Y) domains were purchased from Promega; purchased Promega V4514
protocol_description: ADP-Glo kinase assay, FLT3 D835Y
Assay type: biochemical
condition_info: recombinant FLT3 (D835Y), 120 min room temperature, read-out: Enzyme activity (IC50, nM) FLT3 D835Y
Items are presented alongside their recorded IC50.
Field format: number, assumed nM, no unit text.

1. O=C1Nc2ccc(Br)cc2/C1=C1/Nc2ccccc2/C1=N\OCCN1C[C@H]2C[C@@H]1CN2 [Example 13]: 0.686
2. N[C@@H]1[C@H]2CN(CCO/N=C3/C(=C4/C(=O)Nc5ccccc54)Nc4ccccc43)C[C@@H]12 [Example 3]: 0.303
3. O=C1Nc2ccc(F)cc2/C1=C1/Nc2ccccc2/C1=N\OCCN[C@H]1[C@@H]2CNC[C@@H]21 [Example 7]: 0.37
4. O=C1Nc2ccccc2/C1=C1/Nc2ccccc2/C1=N\OCCN1C[C@@H]2C[C@H]1CN2 [Example 5]: 0.135
5. O=C1Nc2ccc(Cl)cc2/C1=C1/Nc2ccccc2/C1=N\OCCN1C[C@H]2C[C@@H]1CN2 [Example 11]: 0.553

Prompt: IC50 lookup needed for O=C1Nc2ccc(F)cc2/C1=C1/Nc2ccccc2/C1=N\OCCN1C[C@@H]2C[C@H]1CN2 [Example 10] , thanks.
Completion: 0.428

Prompt: Data request, read-out IC50, for O=C(CO/N=C1/C(=C2/C(=O)Nc3ccccc32)Nc2ccccc21)N[C@H]1[C@@H]2CNC[C@@H]21 [Example 16]
Completion: 0.661

###

Recorded IC50 values for a group of compounds are listed next.
tested_system: FLT3 WT (Homo sapiens, UniProt P36888)
Construct: Recombinant proteins containing the FLT3 and FLT3 (D835Y) domains were purchased from Promega; purchased Promega V4064
protocol_description: ADP-Glo kinase assay, FLT3 WT
Assay type: biochemical
condition_info: recombinant FLT3, ADP-Glo, 120 min room temperature; read-out: Enzyme activity (IC50, nM) FLT3 WT
Kindly provide the numeric value in nM only, without the unit symbol.

Record excerpt, results attached:
1) O=C1Nc2ccccc2/C1=C1/Nc2ccccc2/C1=N\OCC(=O)N1C[C@H]2C[C@@H]1CN2: 4.24
2) O=C1Nc2ccccc2/C1=C1/Nc2ccccc2/C1=N\OCCN1CC2(CNC2)C1: 1.42
3) O=C1Nc2ccccc2/C1=C1/Nc2ccccc2/C1=N\OCCN1C[C@H]2C[C@@H]1CN2: 1.37

Next item in the queue.
Prompt: Fill in the recorded IC50 for this compound, with FLT3 WT (Homo sapiens, UniProt P36888) as test system: O=C(CO/N=C1/C(=C2/C(=O)Nc3ccccc32)Nc2ccccc21)N[C@H]1[C@@H]2CNC[C@@H]21
Completion: 3.13

###

tested_system: RET V804L (Homo sapiens, UniProt P07949, V804L)
Construct: Recombinant proteins containing RET wt, RET (M918T) and RET (V804L) domains were purchased from Promega; purchased Promega V4473
Sequence (P07949 724-1016 V804L limits assumed): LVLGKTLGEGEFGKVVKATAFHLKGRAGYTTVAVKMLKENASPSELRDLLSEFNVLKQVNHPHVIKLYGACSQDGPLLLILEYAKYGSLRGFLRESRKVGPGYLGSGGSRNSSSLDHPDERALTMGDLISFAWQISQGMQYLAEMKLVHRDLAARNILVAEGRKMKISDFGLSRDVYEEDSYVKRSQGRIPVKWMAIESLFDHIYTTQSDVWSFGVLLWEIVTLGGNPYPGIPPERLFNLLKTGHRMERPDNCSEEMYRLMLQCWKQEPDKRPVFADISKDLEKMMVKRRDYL
protocol_description: ADP-Glo kinase assay, RET V804L
Assay type: biochemical
condition_info: recombinant RET (V804L), 120 min room temperature, read-out: Enzyme activity (IC50, nM) RET V804L
Protocol: Analysis performed in two steps. First, after kinase reaction, ADP-Glo™ reagent of equal volume was added to finish kinase reaction, and then the rest ATP was exhausted. Second, Kinase Detection Reagent was added to convert ADP to ATP and newly synthesized ATP was measured by luciferase/luciferin reaction at the same time. Generated light was measured by using luminometer. […]
Labelling field: enter MET if recorded IC50 is less than 0.8 nM. Enter NOT MET if it equals or exceeds that cut-off.

1) O=C1Nc2ccc(F)cc2/C1=C1/Nc2ccccc2/C1=N\OCCN[C@H]1[C@@H]2CNC[C@@H]21: MET

Prompt: Hello, is IC50 of the following molecule strictly smaller than 0.8 nM? O=C(CO/N=C1/C(=C2/C(=O)Nc3ccc(F)cc32)Nc2ccccc21)N[C@H]1[C@@H]2CNC[C@@H]21
Completion: MET

Prompt: # strict comparison: is reported IC50 < 0.8 nM? input = O=C1Nc2ccccc2/C1=C1/Nc2ccccc2/C1=N\OCC(=O)N1C[C@H]2C[C@@H]1CN2
Completion: NOT MET

Prompt: Lab log: compare recorded IC50 with 0.8 nM; is it strictly lower for O=C1Nc2ccccc2/C1=C1/Nc2ccccc2/C1=N\OCCN1CC2(CNC2)C1 ?
Completion: NOT MET

Prompt: Item O=C1Nc2ccccc2/C1=C1/Nc2ccccc2/C1=N\OCCN1C[C@@H]2C[C@H]1CN2 : IC50 beneath 0.8 nM, strictly?
Completion: NOT MET

Prompt: Dear reviewer, please state whether O=C1Nc2ccc(F)cc2/C1=C1/Nc2ccccc2/C1=N\OCCN1C[C@@H]2C[C@H]1CN2 has IC50 strictly beneath 0.8 nM.
Completion: MET

Prompt: Quick check: does O=C1Nc2ccc(F)cc2/C1=C1/Nc2ccccc2/C1=N\OCC(=O)N1CC2(CNC2)C1 have IC50 under 0.8 nM?
Completion: MET

Prompt: Please determine if O=C1Nc2ccccc2/C1=C1/Nc2ccccc2/C1=N\OCCN1C[C@H]2C[C@@H]1CN2 is below 0.8 nM in terms of IC50.
Completion: MET

Prompt: Is the reported IC50 for N[C@@H]1[C@H]2CN(CCO/N=C3/C(=C4/C(=O)Nc5ccccc54)Nc4ccccc43)C[C@@H]12 strictly below 0.8 nM?
Completion: NOT MET

Prompt: Is it true that IC50 reported for O=C1Nc2ccccc2/C1=C1/Nc2ccccc2/C1=N\OCCN[C@H]1[C@@H]2CNC[C@@H]21 is less than 0.8 nM?
Completion: MET
